Source listed as patent US20260035359A1.

Tested on: Amaranthus retoflexus (AMARE)
ASSAY METHOD TEXT: Pre-emergence herbicidal glasshouse test
Type: in vivo
STATED CONDITIONS: 250 g/ha, sprayed after one day cultivation, evaluated after 13 days
Give percentage damage caused to the plant, AMARE for every item shown.

Field: example entries. Status: answers known.
molecule="FC(F)c1cn(Cc2ncc(Cl)cn2)c(SCCC(F)(F)F)n1 [Compound 1.012]" experimental_system="Amaranthus retoflexus (AMARE)" val="1 (1=0-20%)"
molecule="C=CCCc1nc(C(F)(F)F)cn1Cc1ncc(Cl)cn1 [Compound 1.020]" experimental_system="Amaranthus retoflexus (AMARE)" val="5 (5=81-100%)"
molecule="CCCCc1nc(C(F)(F)F)cn1Cc1ccc(Cl)cn1 [Compound 1.057]" experimental_system="Amaranthus retoflexus (AMARE)" val="3 (3=41-60%)"
molecule="FC(F)(F)c1cn(Cc2ncc(Cl)cn2)c(CC2CCOCC2)n1 [Compound 1.075]" experimental_system="Amaranthus retoflexus (AMARE)" val="5 (5=81-100%)"
molecule="CCCCc1nc(I)c(I)n1Cc1ncc(Cl)cn1 [Compound 1.078]" experimental_system="Amaranthus retoflexus (AMARE)" val="1 (1=0-20%)"

// input: 6 molecules below; output: percentage damage caused to the plant, AMARE for each
1. CCCCCc1nc(C(F)(F)F)cn1Cc1ncc(C#N)cn1 [Compound 1.015]
2. CC(C)(C#N)CCc1nc(C(F)(F)F)cn1Cc1ncc(Cl)cn1 [Compound 1.062]
3. N#CC1(c2nc(C(F)(F)F)cn2Cc2ncc(Cl)cn2)CC1 [Compound 1.060]
4. CCCCc1nc(C(F)(F)F)cn1Cc1ncc(F)cn1 [Compound 1.077]
5. CCCCc1nc(I)cn1Cc1ncc(Cl)cn1 [Compound 1.079]
6. CC(C)(O)CCc1nc(C(F)(F)F)cn1Cc1ncc(Cl)cn1 [Compound 1.086]

4 (4=61-80%)
5 (5=81-100%)
2 (2=21-40%)
5 (5=81-100%)
1 (1=0-20%)
1 (1=0-20%)

----------
Test system: Amaranthus retoflexus (AMARE)
ASSAY METHOD TEXT: Post-emergence herbicidal glasshouse test
Format: in vivo
STATED CONDITIONS: 250 g/ha, sprayed after 8 days cultivation, evaluated after 13 days
RESULT TYPE: percentage damage caused to the plant, AMARE

Worked set:
compound=CCOCCc1nc(C(F)(F)F)cn1Cc1ncc(Cl)cn1 val="4 (4=61-80%)"
compound=CCCCc1nc(I)cn1Cc1ncc(Cl)cn1 val="1 (1=0-20%)"
compound=FC(F)c1nc(C(F)(F)F)cn1Cc1ncc(Cl)cn1 val="1 (1=0-20%)"
compound="FC(F)(F)c1cn(Cc2ncc(Cl)cn2)c(CCC=NOCC2CC2)n1 (single isomer, unassigned)" val="3 (3=41-60%)"
compound="CCCCc1nc(C=NOC)cn1Cc1ncc(Cl)cn1 (single isomer, unassigned)" val="1 (1=0-20%)"

State recorded percentage damage caused to the plant, AMARE for all listed compounds.
1. FC(F)CCc1nc(C(F)(F)F)cn1Cc1ncc(Cl)cn1
2. COCCc1nc(C(F)(F)F)cn1Cc1ncc(Cl)cn1
3. CC(=O)CCc1nc(C(F)(F)F)cn1Cc1ncc(Cl)cn1
4. O=CCCc1nc(C(F)(F)F)cn1Cc1ncc(Cl)cn1
5. FC(F)(F)c1cn(Cc2ncc(Cl)cn2)c(CC2CCOCC2)n1

4 (4=61-80%)
2 (2=21-40%)
2 (2=21-40%)
1 (1=0-20%)
4 (4=61-80%)
